The measured values listed here are drawn from patent US20240390383A1.

In this section, each of the molecules is paired with its reported Emax.
- target of assay: GCase (GBA) in human fibroblast cell line GM10915 harboring the L444P GBA mutation (Homo sapiens, UniProt P04062, L483P)
- Construct: Human fibroblast cell line GM10915 harboring the L444P GBA mutation; host or cells: GM10915 human fibroblasts
- Sequence (P04062 40-536 L483P): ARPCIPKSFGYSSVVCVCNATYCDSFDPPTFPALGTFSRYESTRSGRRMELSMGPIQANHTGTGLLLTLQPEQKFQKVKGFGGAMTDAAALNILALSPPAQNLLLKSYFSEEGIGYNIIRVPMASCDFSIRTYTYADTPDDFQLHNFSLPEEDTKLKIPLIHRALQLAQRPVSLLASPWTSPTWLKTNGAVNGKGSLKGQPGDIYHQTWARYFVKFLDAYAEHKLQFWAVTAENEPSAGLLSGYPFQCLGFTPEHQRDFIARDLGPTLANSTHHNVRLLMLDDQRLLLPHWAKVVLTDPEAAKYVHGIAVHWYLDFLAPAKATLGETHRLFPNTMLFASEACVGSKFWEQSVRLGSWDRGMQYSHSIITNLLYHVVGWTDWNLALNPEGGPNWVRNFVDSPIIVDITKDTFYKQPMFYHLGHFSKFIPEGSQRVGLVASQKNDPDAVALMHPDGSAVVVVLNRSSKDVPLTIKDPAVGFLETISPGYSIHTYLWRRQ
- assay comment: GCase activity assay (4-MUG substrate, normalised to crystal violet staining) in L444P GBA fibroblasts
- Type: cell-based
- particulars: maximum percent GCase activity relative to untreated cells in the dose range tested, 5 days exposure
Please give a number only; it is taken to be in %.

# example entries with known answers
Prompt line: Given the molecule c1nc2n(n1)CCC(C1=NOCC(CN3CCCCC3)O1)C2 (centres unmarked) , what is its reported Emax?
Response line: 138

Prompt line: Look up Emax for this molecule: CC(C)N1CCCC(C2=NOCC(CN3CCCCC3)O2)C1 (racemic)
Response line: 178

Prompt line: For COC1CNCC(C2=NOCC(CN3CCCCC3)O2)C1 (racemic) , what is its reported Emax?
Response line: 209

Prompt line: Would you kindly share the measured Emax for C1CCN(CC2CON=C(C3(C4CCOCC4)CCNC3)O2)CC1 (racemic) ?
Response line: 188

Continue with the next molecule.
Prompt line: For FC(F)(F)CN1CCCC(CC2=NOCC(CN3CCCCC3)O2)C1 (centres unmarked) , what is its reported Emax?
Response line: 100

* * *

# Lookup of reported Emax keyed by entry
- target of assay: GCase (GBA) in human fibroblast cell line GM10915 harboring the L444P GBA mutation (Homo sapiens, UniProt P04062, L483P)
- Construct: Human fibroblast cell line GM10915 harboring the L444P GBA mutation; host or cells: GM10915 human fibroblasts
- assay comment: GCase activity assay (4-MUG substrate, normalised to crystal violet staining) in L444P GBA fibroblasts
- Assay type: cell-based
- particulars: maximum percent GCase activity relative to untreated cells in the dose range tested, 5 days exposure
Could you give me the number in %? Just the number is fine.

Prompt line: For the molecule shown here, C1CCN(CC2CON=C(CC3CNCCO3)O2)CC1 (stereo not drawn) [compound 863] , give the reported Emax.
Response line: 253

Further cases:
Prompt line: # input molecule: C1CCN(CC2CON=C(C3CN4CCC3CC4)O2)CC1 (racemic) [compound 644] ; wanted: its Emax
Response line: 264

Prompt line: GET /values?readout=Emax&item= CN1CCCC1C1=NOCC(CN2CCCCC2)O1 (stereo not drawn) [compound 695]
Response line: 111

Prompt line: Suppose we examine the molecule CN(C)CCC1=NOCC(CN2CCCCC2)O1 (racemic) [compound 779] ; what Emax value has been reported?
Response line: 259

Prompt line: For the molecule CN1CC[C@@H]2CN(CC3CON=C(C4(C)CCNCC4)O3)C[C@@H]21 (stereo partly drawn) [compound 555] , what Emax is on record?
Response line: 114

Prompt line: What Emax value was documented for this molecule, CN1CCC(C2=NOCC(CN3CCCCC3)O2)C1 (racemic) [compound 546] ?
Response line: 253
